Can you tell me Fresh weight for the items I'm about to list?
tested on: corn seeds; experiment: Seed treatment of corn seeds with flonicamid combinations: root length and fresh weight of seedlings; format: in vivo, Zea mays; conditions: 5 ml/kg of seed; seedlings
One number for each entry, in g.

Reference set, count: 3
{"columns": ["Compound", "Value unit", "Meas value"],
 "data": [
  ["COCC(=O)N(c1c(C)cccc1C)C(C)C(=O)OC (stereo not shown) [Metalayxl 50 g/L, metalaxyl]", "g", 25.72],
  ["CNC(=O)c1cc(C#N)cc(C)c1NC(=O)c1cc(Br)nn1-c1ncccc1Cl", "g", 20.92],
  ["N#CCNC(=O)c1cnccc1C(F)(F)F", "g", 22.73]
]}

Moving on to the next compound.
// lookup Fresh weight for `CN1COCN(Cc2cnc(Cl)s2)/C1=N\[N+](=O)[O-]`
19.31

###

Could you please report measured Germination index for the items listed next?
system: corn seeds; experiment: Germination index of treated corn seeds by petri dish method; format: in vivo, Zea mays; details: 4th day, 5 ml/kg of seed
Numbers only.

These solved cases illustrate the format of a correct answer.
{"columns": ["Compound", "Measured on", "Germination index"],
 "data": [
  ["CNC(=O)c1cc(Cl)cc(C)c1NC(=O)c1cc(Br)nn1-c1ncccc1Cl", "corn seeds", 7],
  ["N#Cc1c[nH]cc1-c1cccc2c1OC(F)(F)O2", "corn seeds", 8],
  ["CNC(=O)c1cc(C#N)cc(C)c1NC(=O)c1cc(Br)nn1-c1ncccc1Cl", "corn seeds", 7],
  ["N#CCNC(=O)c1cnccc1C(F)(F)F [Flonicamid 240 g/L]", "corn seeds", 7],
  ["CN1COCN(Cc2cnc(Cl)s2)/C1=N\\[N+](=O)[O-]", "corn seeds", 7],
  ["COCC(=O)N(c1c(C)cccc1C)C(C)C(=O)OC (centres unmarked) [Metalayxl 50 g/L, metalaxyl]", "corn seeds", 7],
  ["N#CCNC(=O)c1cnccc1C(F)(F)F [Flonicamid 360 g/L]", "corn seeds", 7]
]}

Okay, next one:
What measured Germination index is associated with CC(C)C1CCC(Cc2ccc(Cl)cc2)C1(O)Cn1cncn1 (centres unmarked) on corn seeds?
7

###

What Root length was measured for each of the following?
tested on: corn seeds; assay: Seed treatment of corn seeds with flonicamid combinations: root length and fresh weight of seedlings; assay type: in vivo, Zea mays; details: 5 ml/kg of seed
Units required after the number.

Solved cases (5 shown):
{"columns": ["Compound", "Measured property", "Meas value"],
 "data": [
  ["N#CCNC(=O)c1cnccc1C(F)(F)F", "Root length", "12.5 cm"],
  ["COCC(=O)N(c1c(C)cccc1C)C(C)C(=O)OC (stereo not drawn) [Metalayxl 50 g/L, metalaxyl]", "Root length", "15 cm"],
  ["N#Cc1c[nH]cc1-c1cccc2c1OC(F)(F)O2", "Root length", "14 cm"],
  ["CNC(=O)c1cc(C#N)cc(C)c1NC(=O)c1cc(Br)nn1-c1ncccc1Cl", "Root length", "14.25 cm"],
  ["CC1=C(C(=O)Nc2ccccc2)SCCO1", "Root length", "14.25 cm"]
]}

Proceed to the following item.
Look up Root length for this compound: `CN1COCN(Cc2cnc(Cl)s2)/C1=N\[N+](=O)[O-]`
11.75 cm
